measurement target: AD brain
test details: Scatchard analysis of [^14 C]CG binding to AD brain
Set-up: species or system human
measurement parameters: sample with 48 NP/×200 magnification; read-out: KD (typical AD brain sample)
measure name: Kd
// unit must come after the numeric part

Give Kd for the following molecule: O=C(O)c1cc(N=Nc2ccc(-c3ccc(N=Nc4ccc(O)c(C(=O)O)c4)cc3)cc2)ccc1O [Chrysamine G] 0.35 µM

----------
measurement target: AD brain
test details: Scatchard analysis of [^14 C]CG binding to AD brain
Design: species or system human
measurement parameters: n = 5; read-out: KD, AD brain (Table 1)
measure name: Kd

Give Kd for the following molecule: O=C(O)c1cc(N=Nc2ccc(-c3ccc(N=Nc4ccc(O)c(C(=O)O)c4)cc3)cc2)ccc1O 390 nM

----------
test details: Octanol/water partitioning
measurement parameters: phosphate buffered saline, pH 7.4
measure name: logD

Below: 2 compounds and their reported logD.
>>> result("Nc1c(/N=N/c2ccc(-c3ccc(/N=N/c4cc(S(=O)(=O)O)c5ccccc5c4N)cc3)cc2)cc(S(=O)(=O)O)c2ccccc12")
-0.177
>>> result("O=C(O)c1cc(N=Nc2ccc(-c3ccc(N=Nc4ccc(O)c(C(=O)O)c4)cc3)cc2)ccc1O")
1.78

Give logD for the following compound: O=C(O)c1cc(N=Nc2ccc(-c3ccc(N=Nc4ccc(O)c(C(=O)O)c4)c(I)c3)cc2I)ccc1O 2.05

----------
measurement target: control brain
test details: Scatchard analysis of [^14 C]CG binding to control brain
Design: species or system human
measurement parameters: single typical control; read-out: KD (typical control sample)
measure name: Kd

Identify measured Kd obtained with control brain for O=C(O)c1cc(N=Nc2ccc(-c3ccc(N=Nc4ccc(O)c(C(=O)O)c4)cc3)cc2)ccc1O . 480 nM

----------
measurement target: Aβ(10-43) (Homo sapiens, UniProt P05067)
Sequence (P05067 681-714): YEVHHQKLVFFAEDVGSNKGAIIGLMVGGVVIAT
test details: Inhibition of [^14 C]Chrysamine G binding to Aβ(10-43)
measurement parameters: read-out: Ki for inhibition of [^14 C]Chrysamine G binding to Aβ(10-43); [^14 C]Chrysamine G 0.100-0.125 μM
measure name: pKi
The read-out pKi is expressed as -log10 of concentration in moles per litre.

Give pKi for the following compound: Nc1c(/N=N/c2ccc(-c3ccc(/N=N/c4cc(S(=O)(=O)O)c5ccccc5c4N)cc3)cc2)cc(S(=O)(=O)O)c2ccccc12 5.55

----------
measurement target: Aβ(10-43) (Homo sapiens, UniProt P05067)
test details: Scatchard analysis of Chrysamine G binding to synthetic Aβ(10-43)
measurement parameters: read-out: KD, lower affinity component (Scatchard); less well defined
measure name: Kd

Give Kd for the following compound: O=C(O)c1cc(N=Nc2ccc(-c3ccc(N=Nc4ccc(O)c(C(=O)O)c4)cc3)cc2)ccc1O [Chrysamine G] 4.01 µM

----------
measurement target: Aβ(10-43) (Homo sapiens, UniProt P05067)
test details: Scatchard analysis of Chrysamine G binding to synthetic Aβ(10-43)
measurement parameters: read-out: KD, higher affinity component (Scatchard); Aβ(10-43); two-site model
measure name: Kd (nM)
Quick note: give the figure in nM, leave out the unit.

Give Kd for the following compound: O=C(O)c1cc(N=Nc2ccc(-c3ccc(N=Nc4ccc(O)c(C(=O)O)c4)cc3)cc2)ccc1O [Chrysamine G] 260
